- target-under-test: human recombinant GPR65 (Homo sapiens, UniProt Q8IYL9)
- Sequence (Q8IYL9 whole entry): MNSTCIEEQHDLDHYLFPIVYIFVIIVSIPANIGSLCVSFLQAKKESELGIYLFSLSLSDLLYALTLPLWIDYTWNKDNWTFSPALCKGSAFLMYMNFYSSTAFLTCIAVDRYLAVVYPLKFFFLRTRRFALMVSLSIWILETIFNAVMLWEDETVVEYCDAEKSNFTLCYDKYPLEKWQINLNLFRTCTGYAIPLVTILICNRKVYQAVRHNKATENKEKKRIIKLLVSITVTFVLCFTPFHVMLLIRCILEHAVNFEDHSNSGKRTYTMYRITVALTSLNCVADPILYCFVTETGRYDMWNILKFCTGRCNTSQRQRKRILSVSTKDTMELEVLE
- protocol-description: Human GPR65 cAMP HTRF antagonist assay
- particulars: 1321N1-hrGPR65 cells stimulated at assay pH 7.2; suppression of cAMP rise; read-out: hGPR65 IC50
- Experimental: Human GPR65 Cyclic Adenosine Monophosphate (cAMP) Homogeneous Time Resolved Fluorescence (HTRF) Antagonist Assay Procedure IC50 data was obtained by the following procedure: […] Accumulation of cAMP was detected by cAMP HTRF kit (Cisbio). d2-labeled cAMP and cryptate-labeled anti-cAMP antibody in Lysis and Detection Buffer (Cisbio) were added to assay plates, and the plates were incubated at room temperature for 1 h. […]
We begin with a simple list: items and their reported IC50.

Some compounds with recorded IC50:
>>> result("Nc1ccc2c(n1)CCN(C(=O)Nc1ccc(Cl)c(Cl)c1)C2 [Compound 122]")
"> 5 µM"
>>> result("Cc1cccc2c1CN(C(=O)Nc1ccc(Cl)c(C(F)(F)F)c1)CC2 [Compound 28]")
"> 5 µM"
>>> result("O=C(Nc1ccc(Cl)c(Cl)c1)N1CCc2ccc(F)cc2C1 [Compound 31]")
"< 0.5 µM"

Query: Kindly state the measured IC50 obtained for Nc1nccc2c1CCN(C(=O)Nc1ccc(Cl)c(Cl)c1)C2 [Compound 119] with human recombinant GPR65 (Homo sapiens, UniProt Q8IYL9).
Response: > 5 µM

Query: Kindly state the measured IC50 obtained for O=C(Nc1ccc(Cl)c(Cl)c1)N1CCc2ccccc2C1 [Compound 81] with human recombinant GPR65 (Homo sapiens, UniProt Q8IYL9).
Response: 0.5 to 5 µM

---

We begin with a simple list: items and their reported IC50.
- target-under-test: human recombinant GPR65 (Homo sapiens, UniProt Q8IYL9)
- protocol-description: Human GPR65 cAMP HTRF antagonist assay
- particulars: 1321N1-hrGPR65 cells stimulated at assay pH 7.2; suppression of cAMP rise; read-out: hGPR65 IC50
- Experimental: Human GPR65 Cyclic Adenosine Monophosphate (cAMP) Homogeneous Time Resolved Fluorescence (HTRF) Antagonist Assay Procedure IC50 data was obtained by the following procedure: […] Accumulation of cAMP was detected by cAMP HTRF kit (Cisbio). d2-labeled cAMP and cryptate-labeled anti-cAMP antibody in Lysis and Detection Buffer (Cisbio) were added to assay plates, and the plates were incubated at room temperature for 1 h. […]

>>> result("O=C(Nc1cc(Cl)c(Cl)cc1F)N1CCc2cc(=O)[nH]cc2C1")
"< 500 nM"
>>> result("O=C(Nc1ccc(Cl)c(Cl)c1)N1CCc2cnccc2C1")
"500 to 5000 nM"
>>> result("COc1ccc2c(c1)CN(C(=O)Nc1ccc(Cl)c(C(F)(F)F)c1)CC2")
"> 5000 nM"
>>> result("O=C(Nc1ccc(Cl)c(C(F)(F)F)c1)N1CCc2ccccc2C1")
"500 to 5000 nM"
>>> result("O=C(Nc1ccc(Cl)c(Cl)c1)N1CCc2c(Cl)cccc2C1")
"500 to 5000 nM"

Query: Which value of IC50 has been reported for N#Cc1ccc2c(c1)CCN(C(=O)Nc1ccc(C(F)(F)F)c(Cl)c1)C2 in the records?
Response: < 500 nM

Query: Which value of IC50 has been reported for O=C(Nc1ccc(C(F)(F)F)c(Cl)c1)N1CCc2cnc(Cl)cc2C1 in the records?
Response: 500 to 5000 nM

Query: Which value of IC50 has been reported for COC(=O)c1cc2c(cn1)CN(C(=O)Nc1ccc(C(F)(F)F)c(Cl)c1)CC2 in the records?
Response: 500 to 5000 nM
